experiment: Protein binding in mouse plasma assessed as tritiated drug level; assay type: ADME, cell-free; details: read-out: PPB (converted)
Assay Readout: fraction unbound
In your answer, state the number alone without any accompanying words.

For record Cc1ccc(C(=O)Nc2ccc(S(=O)(=O)O)c3cc(S(=O)(=O)O)cc(S(=O)(=O)O)c23)cc1NC(=O)c1cccc(NC(=O)Nc2cccc(C(=O)Nc3cc(C(=O)Nc4ccc(S(=O)(=O)O)c5cc(S(=O)(=O)O)cc(S(=O)(=O)O)c45)ccc3C)c2)c1 [SURAMIN] the listed fraction unbound is 0.03

----------
assay: Protein binding in human plasma assessed as tritiated drug level; assay type: ADME, cell-free; conditions: read-out: PPB (converted)
Assay Readout: fraction unbound
In your answer, state the number alone without any accompanying words.

For record Cc1ccc(C(=O)Nc2ccc(S(=O)(=O)O)c3cc(S(=O)(=O)O)cc(S(=O)(=O)O)c23)cc1NC(=O)c1cccc(NC(=O)Nc2cccc(C(=O)Nc3cc(C(=O)Nc4ccc(S(=O)(=O)O)c5cc(S(=O)(=O)O)cc(S(=O)(=O)O)c45)ccc3C)c2)c1 the listed fraction unbound is 0.006
